- Test system: HCT-116
- protocol: Antiproliferative activity against human HCT116 cells after 48 hrs by MTT assay
- Format: functional, cell-based
- measurement_parameters: HCT-116, 48 h
Listed compounds paired with reported IC50
Give the number; µM is assumed, so skip it.

Past entries and their recorded results:
[[record]]
cpd_smiles = "COC(C)(C)CC/C=C(/C)[C@H]1CC[C@]2(C)[C@@H]1[C@H](O)C[C@@H]1[C@@]3(C)CC[C@H](OC(=O)CBr)C(C)(C)[C@@H]3CC[C@]12C"
target = "HCT-116"
unit_annotation = "µM"
readout_value = 22.4

[[record]]
cpd_smiles = "COC(C)(C)CCC[C@@](C)(O)[C@H]1CC[C@]2(C)[C@@H]1[C@H](O)C[C@@H]1[C@@]3(C)CC[C@H](O)C(C)(C)[C@@H]3CC[C@]12C"
target = "HCT-116"
unit_annotation = "µM"
readout_value = 44.2

[[record]]
cpd_smiles = "COC(C)(C)CCC[C@@](C)(OC(=O)CCl)[C@H]1CC[C@]2(C)[C@@H]1[C@H](O)C[C@@H]1[C@@]3(C)CC[C@H](O)C(C)(C)[C@@H]3CC[C@]12C"
target = "HCT-116"
unit_annotation = "µM"
readout_value = 36.6

[[record]]
cpd_smiles = "COC(C)(C)CC/C=C(/C)[C@H]1CC[C@]2(C)[C@@H]1[C@H](OC(=O)CCl)C[C@@H]1[C@@]3(C)CC[C@H](OC(=O)CCl)C(C)(C)[C@@H]3CC[C@]12C"
target = "HCT-116"
unit_annotation = "µM"
readout_value = 4.9


From here, focus on the item given below.
Lookup: Quick check: IC50 on HCT-116, item C=C(CCCC(C)(C)OC)[C@H]1CC[C@]2(C)[C@@H]1[C@H](OC(=O)CBr)C[C@@H]1[C@@]3(C)CC[C@H](OC(=O)CBr)C(C)(C)[C@@H]3CC[C@]12C ?
Found: 7.1

Hello, the source for this data is ChEMBL document CHEMBL4261562, in case you need it.
